- experiment: Cytotoxicity against MDCK cells
- Format: cell-based, Canis lupus familiaris
- run parameters: dog
Mark MET only when CC50 stays strictly below 50 µM. Values equal to the cut-off are NOT MET.

molecule smiles: CN(C(=O)C1(c2ccccc2)CCCC1)c1ccc(C#N)cc1
label: NOT MET
--
molecule smiles: CN(C(=O)C1(c2ccccc2)CCCC1)c1ccc(Cl)cc1
label: MET

Hello, is CC50 of the following compound strictly smaller than 50 µM? CN(C(=O)C1(c2ccccc2)CCCC1)C1CCCCC1
MET

Hello, is CC50 of the following compound strictly smaller than 50 µM? O=C(N1CCCCC1)C1(c2ccccc2)CCCC1
NOT MET

Hello, is CC50 of the following compound strictly smaller than 50 µM? COC(=O)[C@@]1(C)CCC[C@]2(C)c3cc(OC)ccc3C(=O)C[C@@H]12
NOT MET

Hello, is CC50 of the following compound strictly smaller than 50 µM? O=C(N1CCOCC1)C1(c2ccccc2)CCCC1
NOT MET

Hello, is CC50 of the following compound strictly smaller than 50 µM? CN(C(=O)C1(c2ccccc2)CCCC1)c1ccccc1
NOT MET

Hello, is CC50 of the following compound strictly smaller than 50 µM? CN(C(=O)C1(c2ccccc2)CCCC1)c1cccc(C#N)c1
NOT MET

Hello, is CC50 of the following compound strictly smaller than 50 µM? O=C(N(CCO)c1ccccc1)C1(c2ccccc2)CCCC1
NOT MET

Hello, is CC50 of the following compound strictly smaller than 50 µM? CN(C(=O)C1(c2ccc(Cl)cc2)CCCCC1)c1ccccc1
MET

Hello, is CC50 of the following compound strictly smaller than 50 µM? CN(C(=O)C1(c2ccccc2)CCCC1)c1cccnc1
NOT MET
